- system.under.test: spotted gar bombesin receptor subtype-3 (spotted gar (Lepisosteus oculatus))
- Sequence (main, as listed by the source): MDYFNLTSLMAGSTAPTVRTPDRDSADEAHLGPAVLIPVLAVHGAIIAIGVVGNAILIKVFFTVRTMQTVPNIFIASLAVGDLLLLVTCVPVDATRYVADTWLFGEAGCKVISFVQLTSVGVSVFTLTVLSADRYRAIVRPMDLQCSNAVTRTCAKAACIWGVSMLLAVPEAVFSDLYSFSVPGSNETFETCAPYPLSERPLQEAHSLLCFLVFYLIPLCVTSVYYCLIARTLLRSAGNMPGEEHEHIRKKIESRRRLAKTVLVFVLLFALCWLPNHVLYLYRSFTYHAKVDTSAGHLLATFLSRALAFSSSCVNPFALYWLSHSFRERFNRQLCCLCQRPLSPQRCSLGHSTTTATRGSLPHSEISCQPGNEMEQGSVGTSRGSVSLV
- assay.procedure: radioligand binding; displacement of 50 pM [125I]-Tyr-NMB by unlabeled peptide on disaggregated transfected HEK293 cells; 1 h at 21°C; 24.5 mM HEPES pH 7.4, 98 mM NaCl; bound tracer separated by centrifugation
Where no end group is shown, it is not given here.
assay.readout: IC50 (nM)
Write down the numeric answer in nM and omit the unit.

Request: Any idea what its IC50 is? The binder is APLQPGGSPALTKIYPRGSHWAVGHLM (ends and bridges not checked) [gastrin-releasing peptide, unlabeled ligand peptide of the radioligand binding assays]
Response: 0.54

Where do the numbers come from? From paper PMC6422423.
